# System: CAKI-1 renal
# Protocol text: NCI-60 one-dose screen, 48 h (100 = growth as untreated, 0 = no growth, -100 = all killed)
# Condition description: 10 µM unless noted
This is part of a sample that, as a whole, favours compounds with a hit. Of some 83,000 tested, about 20% had one in any assay.
Value type: growth (%)
# output: bare number, implied unit %

Input line: Name the reported growth value associated with the compound "Cc1nc2cc(Nc3nc(Cl)nc(Nc4ccc(F)cc4)n3)ccc2n1Cc1ccccc1"
Output line: 87.7

Input line: Request: "Cc1ccc(N(CSc2ccc(Cl)cc2)CSc2ccc(Cl)cc2)cc1"
Output line: 28.8

Input line: Request: "O=C(c1ccc2ncc(-c3nc(NC4CC4)ncc3F)n2c1)N1CCOCC1"
Output line: 3.25

Input line: Request: CC1(C)CC(=O)C2=C(C1)Nc1cc3c(cc1C2c1ccc(F)cc1)OCO3 (centres undefined)
Output line: 96.4

Input line: Request: "CC(=O)Nc1ccc(S(=O)(=O)N/N=C\c2ccc(Cl)c(Cl)c2)cc1"
Output line: 91.5

Input line: Request: COC1(OC)C2(Cl)C=C(c3ccccc3)C1(Cl)C(Cl)=C2Cl (centres undefined)
Output line: 92.7

Input line: Request: "CCOC(=O)c1sc(NC(=O)CN2CCC(Cc3ccccc3)CC2)nc1C"
Output line: 99.4

Input line: Request: CC(C)NCC(O)COc1ccc(CCOCC2CC2)cc1 (centres undefined)
Output line: 99.3

Input line: Request: "COc1cccc(OC)c1OC(=O)c1ccccc1"
Output line: 88.4

Input line: Request: "O=C1C=CC(=O)N1CCCCCCCCCCN1C(=O)C=CC1=O"
Output line: 15.2

Input line: Request: "CCCC1=NNC(=O)C1"
Output line: 94.8

Input line: Request: "CN1CCc2c(Sc3ccc(C(=O)NO)cc3)c3ccccc3n2C1"
Output line: 78.8

Input line: Request: "ONc1nc(NO)c2[nH]cnc2n1"
Output line: 64.1

Input line: Request: Cc1ccc(C2SCC(=O)N2NC(=O)c2[nH]c3ccc(F)cc3c2-c2ccccc2)cc1 (centres undefined)
Output line: 77.1

Input line: Request: "O=C(Nc1ccccc1)Oc1cccc2cccnc12"
Output line: 93.9

Input line: Request: "COc1ccc(NC(=O)COc2ccccc2)c(C(N)=O)c1"
Output line: 49

Input line: Request: "COc1cc(-c2nc(Nc3nc4ccccc4[nH]3)nc(N)c2C#N)cc(OC)c1OC"
Output line: 56.9

Input line: Request: "Fc1c[c-]c(-c2ccccn2)c(F)c1.Fc1c[c-]c(-c2ccccn2)c(F)c1.[Cl][Pt+].[Cl][Pt+].c1ccc([PH+](C[PH+](c2ccccc2)c2ccccc2)c2ccccc2)cc1"
Output line: 41.4

Input line: Request: "CN1CCN(CCCn2c3c(sc4ncccc43)c(=O)n3nnc(-c4ccccc4)c23)CC1"
Output line: 97.7

Input line: Request: "CC(C)(C)CC(C)(C)N(CSc1ccc(Cl)cc1)CSc1ccc(Cl)cc1"
Output line: 24.9

Input line: Request: "O=[N+]([O-])c1ccc(O)c2ncccc12"
Output line: 57

Input line: Request: "CCC(=O)Nc1nnc(Cc2ccc(OC)c(OC)c2)s1"
Output line: -33.6

Input line: Request: "Oc1ccc(Cl)cc1CNc1nc2ccccc2[nH]1"
Output line: 64

Input line: Request: "CN(C)c1ccc(/C=C(\C#N)c2cc3ccccc3n2C)cc1"
Output line: 30.7
